Test system: P. aeruginosa ATCC 27853
Assay: Antibiotic potentiation (MIC of antibiotics in the presence of synergizing compounds), P. aeruginosa
Format: cell-based, Pseudomonas aeruginosa
Conditions: concentration required to restore doxycycline activity at 2 µg/mL (4.5 µM) against P. aeruginosa ATCC 27853
Measured Property: Conc (µM) for Potentiation of doxycycline
Answers are plain numbers, in µM.

Cc1cccc2c(C(=O)C(=O)NCCCNCCCCCCNCCCNC(=O)C(=O)c3c[nH]c4c(C)cccc34)c[nH]c12.O=C(O)C(F)(F)F.O=C(O)C(F)(F)F [Compound 23a]: 60

For every item in the list below, what is its measured Conc (µM) for Potentiation of doxycycline?
1. Cc1cccc2c(C(=O)C(=O)NCCCNCCCCCCCCNCCCNC(=O)C(=O)c3c[nH]c4c(C)cccc34)c[nH]c12.O=C(O)C(F)(F)F.O=C(O)C(F)(F)F [Compound 23c]
2. Cc1ccc2[nH]cc(C(=O)C(=O)NCCCNCCCCCCNCCCNC(=O)C(=O)c3c[nH]c4ccc(C)cc34)c2c1.O=C(O)C(F)(F)F.O=C(O)C(F)(F)F [Compound 20a]
3. COc1cccc2c(C(=O)C(=O)NCCCNCCCCCCCCCCCCNCCCNC(=O)C(=O)c3c[nH]c4c(OC)cccc34)c[nH]c12 [Compound 22e]
4. Cc1ccc2[nH]cc(C(=O)C(=O)NCCCNCCCCCCCNCCCNC(=O)C(=O)c3c[nH]c4ccc(C)cc34)c2c1.O=C(O)C(F)(F)F.O=C(O)C(F)(F)F [Compound 20b]
5. COc1cccc2c(C(=O)C(=O)NCCCNCCCCCCCCCCNCCCNC(=O)C(=O)c3c[nH]c4c(OC)cccc34)c[nH]c12.O=C(O)C(F)(F)F.O=C(O)C(F)(F)F [Compound 22d]

Result string:
1: 230; 2: 12.5; 3: 400; 4: 12.5; 5: 400

* * *

System: P. aeruginosa ATCC 27853
Assay: Antibiotic potentiation (MIC of antibiotics in the presence of synergizing compounds), P. aeruginosa
Type: cell-based, Pseudomonas aeruginosa
Conditions: concentration required to restore doxycycline activity at 2 µg/mL (4.5 µM) against P. aeruginosa ATCC 27853
Measured Property: Conc (µM) for Potentiation of doxycycline
One number for each entry, in µM.

Would you please look over these solved cases?
COc1ccc2[nH]cc(C(=O)C(=O)NCCCNCCCCCCCCNCCCNC(=O)C(=O)c3c[nH]c4ccc(OC)cc34)c2c1 [Compound 19c]: 25
O=C(NCCCNCCCCCCCNCCCNC(=O)C(=O)c1c[nH]c2ccc(Br)cc12)C(=O)c1c[nH]c2ccc(Br)cc12.O=C(O)C(F)(F)F.O=C(O)C(F)(F)F [Compound 18b]: 12.9

Now for the compound whose Conc (µM) for Potentiation of doxycycline we want.
Query string: Specify reported Conc (µM) for Potentiation of doxycycline for the compound shown: Cc1cccc2c(C(=O)C(=O)NCCCNCCCCCCCCCCCCNCCCNC(=O)C(=O)c3c[nH]c4c(C)cccc34)c[nH]c12.O=C(O)C(F)(F)F.O=C(O)C(F)(F)F [Compound 23e]
Result string: 220

* * *

Test system: human red blood cells
Test: Hemolytic assay
Type: cell-based
Conditions: mean (n = 2)
Procedure: Hemolysis assays were conducted according to previously reported protocols.
Measured Property: Hem. HC10 (concentration of compound at 10% hemolytic activity)

Would you please look over these solved cases?
Cc1ccc2[nH]cc(C(=O)C(=O)NCCCNCCCCCCCCCCCCNCCCNC(=O)C(=O)c3c[nH]c4ccc(C)cc34)c2c1.O=C(O)C(F)(F)F.O=C(O)C(F)(F)F [Compound 20e]: 2.0 µM
O=C(NCCCNCCCCNCCCNC(=O)C(=O)c1c[nH]c2ccc(Br)cc12)C(=O)c1c[nH]c2ccc(Br)cc12 [Compound 3]: >34 µM
COc1cccc2c(C(=O)C(=O)NCCCNCCCCCCCNCCCNC(=O)C(=O)c3c[nH]c4c(OC)cccc34)c[nH]c12.O=C(O)C(F)(F)F.O=C(O)C(F)(F)F [Compound 22b]: >37 µM
O=C(NCCCNCCCCCCCCNCCCNC(=O)C(=O)c1c[nH]c2c(F)cccc12)C(=O)c1c[nH]c2c(F)cccc12.O=C(O)C(F)(F)F.O=C(O)C(F)(F)F [Compound 21c]: >37 µM
COc1cccc2c(C(=O)C(=O)NCCCNCCCCCCCCNCCCNC(=O)C(=O)c3c[nH]c4c(OC)cccc34)c[nH]c12 [Compound 22c]: >36 µM
Cc1cccc2c(C(=O)C(=O)NCCCNCCCCCCNCCCNC(=O)C(=O)c3c[nH]c4c(C)cccc34)c[nH]c12.O=C(O)C(F)(F)F.O=C(O)C(F)(F)F [Compound 23a]: >39 µM
O=C(NCCCNCCCCCCCNCCCNC(=O)C(=O)c1c[nH]c2c(F)cccc12)C(=O)c1c[nH]c2c(F)cccc12.O=C(O)C(F)(F)F.O=C(O)C(F)(F)F [Compound 21b]: >38 µM
O=C(NCCCNCCCCNCCCNC(=O)C(=O)c1c[nH]c2ccccc12)C(=O)c1c[nH]c2ccccc12 [Compound 2]: >41 µM
O=C(NCCCNCCCCCCCCCCCCNCCCNC(=O)C(=O)c1c[nH]c2c(F)cccc12)C(=O)c1c[nH]c2c(F)cccc12.O=C(O)C(F)(F)F.O=C(O)C(F)(F)F [Compound 21e]: >35 µM
COc1cccc2c(C(=O)C(=O)NCCCNCCCCCCNCCCNC(=O)C(=O)c3c[nH]c4c(OC)cccc34)c[nH]c12.O=C(O)C(F)(F)F.O=C(O)C(F)(F)F [Compound 22a]: >37 µM

For every item in the list below, what is its measured Hem. HC10 (concentration of compound at 10% hemolytic activity)?
1. Cc1ccc2[nH]cc(C(=O)C(=O)NCCCNCCCCCCCNCCCNC(=O)C(=O)c3c[nH]c4ccc(C)cc34)c2c1.O=C(O)C(F)(F)F.O=C(O)C(F)(F)F [Compound 20b]
2. COc1ccc2[nH]cc(C(=O)C(=O)NCCCNCCCCNCCCNC(=O)C(=O)c3c[nH]c4ccc(OC)cc34)c2c1 [Compound 4]
3. COc1ccc2[nH]cc(C(=O)C(=O)NCCCNCCCCCCCCCCCCNCCCNC(=O)C(=O)c3c[nH]c4ccc(OC)cc34)c2c1 [Compound 19e]
4. Cc1ccc2[nH]cc(C(=O)C(=O)NCCCNCCCCNCCCNC(=O)C(=O)c3c[nH]c4ccc(C)cc34)c2c1 [Compound 5]
5. O=C(NCCCNCCCCCCCCCCNCCCNC(=O)C(=O)c1c[nH]c2ccccc12)C(=O)c1c[nH]c2ccccc12.O=C(O)C(F)(F)F.O=C(O)C(F)(F)F [Compound 17d]
6. COc1ccc2[nH]cc(C(=O)C(=O)NCCCNCCCCCCCNCCCNC(=O)C(=O)c3c[nH]c4ccc(OC)cc34)c2c1.O=C(O)C(F)(F)F.O=C(O)C(F)(F)F [Compound 19b]
7. Cc1cccc2c(C(=O)C(=O)NCCCNCCCCNCCCNC(=O)C(=O)c3c[nH]c4c(C)cccc34)c[nH]c12 [Compound 8]

Result string:
[">38 µM", ">38 µM", ">34 µM", ">40 µM", ">37 µM", ">37 µM", ">40 µM"]

For every item in the list below, what is its measured Hem. HC10 (concentration of compound at 10% hemolytic activity)?
1. COc1cccc2c(C(=O)C(=O)NCCCNCCCCCCCCCCCCNCCCNC(=O)C(=O)c3c[nH]c4c(OC)cccc34)c[nH]c12 [Compound 22e]
2. O=C(NCCCNCCCCCCCCCCCCNCCCNC(=O)C(=O)c1c[nH]c2ccc(Br)cc12)C(=O)c1c[nH]c2ccc(Br)cc12.O=C(O)C(F)(F)F.O=C(O)C(F)(F)F [Compound 18e]
3. COc1ccc2[nH]cc(C(=O)C(=O)NCCCNCCCCCCCCCCNCCCNC(=O)C(=O)c3c[nH]c4ccc(OC)cc34)c2c1.O=C(O)C(F)(F)F.O=C(O)C(F)(F)F [Compound 19d]
4. COc1ccc2[nH]cc(C(=O)C(=O)NCCCNCCCCCCCCNCCCNC(=O)C(=O)c3c[nH]c4ccc(OC)cc34)c2c1 [Compound 19c]

Result string:
0.93 µM
20 µM
>35 µM
26 µM

For every item in the list below, what is its measured Hem. HC10 (concentration of compound at 10% hemolytic activity)?
1. Cc1cccc2c(C(=O)C(=O)NCCCNCCCCCCCCCCCCNCCCNC(=O)C(=O)c3c[nH]c4c(C)cccc34)c[nH]c12.O=C(O)C(F)(F)F.O=C(O)C(F)(F)F [Compound 23e]
2. O=C(NCCCNCCCCCCNCCCNC(=O)C(=O)c1c[nH]c2ccc(Br)cc12)C(=O)c1c[nH]c2ccc(Br)cc12.O=C(O)C(F)(F)F.O=C(O)C(F)(F)F [Compound 18a]

Result string:
8.4 µM
>33 µM
